Values from PubChem BioAssay AID686978

# protocol-summary: qHTS for Inhibitors of human tyrosyl-DNA phosphodiesterase 1 (TDP1): qHTS in cells in absence of CPT; also: nearly all actives have a fitted effect of over 55% in size
# particulars: DT40 Tdp1-/- hTDP1 cells, no CPT, ATP luminescence, 48 h
Screen size: about 420,000 compounds; about 64,000 (15%) were called active. Not shown: some 27% with an inconclusive outcome. Calls follow the shape of the dose curve; as a rule, active = well fitted inhibition curve with a large enough effect; inconclusive = small, poorly fitted or top-dose-only effect; inactive = flat fitted curve, though single readings scatter. Not all results are given here.
Returns: one label drawn from active, inactive

Please review the following examples before continuing.
COc1cc(NC(=S)NCc2ccc(S(N)(=O)=O)cc2)cc(OC)c1 = inactive
O=C(Oc1ccc2c(c1)CCC2)N1CCOCC1 = inactive
O=C(CCn1c(=S)[nH]c2ccccc2c1=O)NCCCN1CCCC1=O = inactive

Fill in: this test's call for Cc1ccc(-c2cc(C(=O)Oc3ccccc3Cl)no2)cc1C is ___
inactive

Fill in: this test's call for O=C(Cc1csc(Nc2nc(=S)[nH]c3ccccc23)n1)NCCCN1CCN(c2cccc(Cl)c2)CC1 is ___
active

Fill in: this test's call for CCC(C)c1ccc(NC(=S)N2CCCC2)cc1 (stereo not drawn) is ___
active

Fill in: this test's call for Cc1cc(CNC(=O)C2CCC(=O)N(CCc3ccc(Cl)cc3)C2)no1 (stereo not drawn) is ___
inactive

Fill in: this test's call for Cn1cnc(S(=O)(=O)N2C[C@@H](O)COC[C@@H]3O[C@H](CC(=O)NC4CCC4)CC[C@H]32)c1 is ___
inactive

Fill in: this test's call for Cc1ccc(Cn2c(SCC(=O)N/N=C/c3ccccc3OCC(=O)O)nc3ccccc32)cc1 is ___
inactive

Fill in: this test's call for CC1CC(C)CN(CCCNC(=O)Cn2ncc3c([nH]c4ccccc43)c2=O)C1 (stereo not drawn) is ___
inactive

Fill in: this test's call for COc1ccc(Cn2c(=O)c3oc4ccccc4c3n(CC(=O)Nc3ccc(F)cc3F)c2=O)cc1 is ___
inactive

Fill in: this test's call for C/C(=N\Nc1ccc([N+](=O)[O-])cc1)c1ccc(-n2nncc2C(C)(C)C)cc1 is ___
inactive

Fill in: this test's call for CCOC(=O)c1ccc(NC(=S)N2CCCC2)cc1 is ___
inactive

Fill in: this test's call for C/C(=N\NC(=O)C(N)=O)c1ccc2c(c1)OCCO2 is ___
inactive

Fill in: this test's call for CCN(CC)C(=O)CSc1nc2ccccc2n1CC(=O)N1CCN(c2ccccc2OC)CC1 is ___
inactive

Fill in: this test's call for O=C(Cn1c(=O)sc2ccccc21)Nc1nc2c(s1)CCCC2 is ___
inactive

Fill in: this test's call for CC(=O)N1CCCc2cc(S(=O)(=O)Nc3ccc(Cl)cc3F)ccc21 is ___
active

Fill in: this test's call for CCn1c(SCC(=O)N2CCCC2=O)nc2ccccc21 is ___
inactive

Fill in: this test's call for Oc1c(C=Nc2cccc3nsnc23)ccc2ccccc12 is ___
inactive

Fill in: this test's call for CN1CCN(C(=O)C2=C[C@H](c3ccc4c(c3)OCO4)C[C@H](OCc3ccc(CO)cc3)O2)CC1 is ___
inactive

Fill in: this test's call for COCCn1c(=O)c(-c2cccs2)nc2cnc(N3CCN(C)CC3)nc21 is ___
inactive

Fill in: this test's call for CCCc1nc2ccccc2n1C(C)C(=O)NC(C)(C)C (stereo not drawn) is ___
inactive

Fill in: this test's call for O=C(C1=C[C@H](c2ccc(C(F)(F)F)cc2)C[C@H](OCc2ccc(CO)cc2)O1)N1CCN(Cc2ccccc2)CC1 is ___
active

Fill in: this test's call for CC(C)OCCCNc1nc2c(c(=O)n(Cc3ccccc3F)c(=O)n2C)n1C is ___
inactive

Fill in: this test's call for COCCOC1CCN(C(=O)c2ccc(OC)c(OC3CCN(C(C)C)CC3)c2)CC1 is ___
inactive

Fill in: this test's call for COc1ccccc1N(C)S(=O)(=O)c1ccc(C(=O)NC2CCCCCC2)cc1 is ___
active

Fill in: this test's call for O=C1C(=O)N(CCCO)C(c2ccccc2)/C1=C(\O)c1ccc(Br)cc1 (stereo not drawn) is ___
inactive

Fill in: this test's call for O=C(O)C1=C[C@H](c2cccs2)C[C@H](OCCCCO)O1 is ___
inactive
